Test system: TIE1
experimentalSetup: concentration: 1 μM, replicates: in singlicate; n = 1;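 note: KINOMEscan kinase panel screen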
measuredEndpoint: %Inh (%)
The answer is to be given in %; state only the numeric part.

Req: Param readout = %Inh; param system = TIE1; param query = `O=C(Nc1n[nH]c2nc(-c3ccccc3O)ccc12)C1CC1` ; response: value
Resp: 16

Req: Record lookup: for TIE1, what %Inh belongs to `CS(=O)(=O)c1cccc(CNc2nc(Nc3ccc4c(c3)CCC(=O)N4)ncc2C(F)(F)F)c1` ?
Resp: 57

Req: For TIE1, provide %Inh of `CN(C)CCNS(=O)(=O)c1ccc(-c2ccnc3[nH]ccc23)cc1` please.
Resp: 32

Req: Request: %Inh, test system TIE1, entry `COC(=O)Nc1nc2cc(Oc3ccc(NC(=O)Nc4cccc(SC)c4)cc3)ccc2[nH]1.Cl`
Resp: 96.5

Req: Form: Entry = `Nc1cccc(-c2ccc3c(N)n[nH]c3c2)c1` | System = TIE1 | %Inh = ____
Resp: 6

Req: Recall the recorded %Inh for `Fc1cc(Cl)ccc1Nc1ccnc2cc(-c3ccc(CN4CCOCC4)o3)ccc12` with TIE1 and state it.
Resp: 13

---

System: FGFR3
experimentalSetup: concentration: 1 μM, replicates: in singlicate; n = 1
So I've got a bunch of molecules here, and I need their %Inh values.
State just the number; it will be interpreted in %.

Req: Lookup: %Inh / FGFR3 / Cc1cccc(Nc2nc(NCCN)ncc2C(N)=O)c1 [GSK1292139]
Resp: 0

Req: API: value(readout=%Inh, system=FGFR3) for record COc1ccc(C)c(Nc2ccnc(Nc3ccc(-c4cnc[nH]4)cc3)n2)c1.Cl [GW784041]
Resp: 48

Req: # query: %Inh | item N#Cc1cnc2cc(-c3cnc(CNCCN4CCOCC4)s3)ccc2c1Nc1ccc(Oc2ccccc2)cc1 [GW664114] | system: FGFR3
Resp: 2

Req: Lab request: please report %Inh under test system FGFR3 for `CS(=O)(=O)c1cccc(CNc2nc(Nc3ccc4c(c3)CCC(=O)N4)ncc2C(F)(F)F)c1`
Resp: 36

Req: Request body: readout %Inh, system FGFR3, query Cn1cc(-c2ccc3c(c2)CCN3C(=O)Cc2cc(F)cc(C(F)(F)F)c2)c2c(N)ncnc21 [GSK2635225] . Return the value.
Resp: 11

Req: Find %Inh (FGFR3) for the entry c1ccc(Oc2ccc(Nc3ccnc4cc(-c5ccc(CN6CCCCC6)o5)ccc34)cc2)nc1 [GW567143]
Resp: 1

Req: Please state recorded %Inh (tested on FGFR3) of Cl.Cl.NCC(NC(=O)c1cc(-c2cccnc2)c(-c2ccnc3[nH]ccc23)s1)c1ccccc1 (centres unmarked) [GSK1323434]
Resp: 39

Req: # returns recorded %Inh (system: FGFR3) for Cl.Cl.NC(CNC(=O)c1cc(Br)c(-c2ccnc3[nH]ccc23)s1)c1ccccc1 (centres unmarked) [GSK1322949]
Resp: 26

---

For each record, write down the corresponding %Inh.
Test system: TAK1
Construct: gene MAP3K7
experimentalSetup: concentration: 1 μM, replicates: in singlicate; n = 1
// units = %; emit number, no label

Req: Any idea what %Inh was measured for `CN(c1ccc(NC(=O)Nc2cccc(Cl)c2)cc1)c1ccnc(N)n1.Cl` ?
Resp: 19

Req: Could you tell me which %Inh is on file for `Cc1nn2c(=O)cc(N3CCO[C@H](C)C3)nc2n1Cc1cccc(Cl)c1Cl` ?
Resp: 0

Req: I am curious: what %Inh value has been reported for `Cc1ccc(NC(=O)c2cccc(N3CCCCC3)c2)cc1-c1ccc(C(=O)NCC2CC2)cc1` ?
Resp: 0

Req: Any idea what its %Inh is? The molecule is Cl.Cl.NCC(NC(=O)c1cc(-c2cccnc2)c(-c2ccnc3[nH]ccc23)s1)c1ccccc1 (centres unmarked)
Resp: 45

Req: Param item = `Nc1ncnc2scc(-c3ccc(NC(=O)Cc4cc(F)ccc4F)cc3)c12.O=C(O)C(F)(F)F` ; retrieve measured %Inh.
Resp: 22

Req: Given the entry `COC(=O)Nc1nc2ccc(Oc3ccc(CC(=O)Nc4cc(C(F)(F)F)ccc4F)cc3)cc2[nH]1` , report its measured %Inh.
Resp: 0

Req: Any idea what %Inh was measured for `COc1cccc(NC(=O)NCCNc2ccnc(Nc3ccc(F)cc3)n2)c1` ?
Resp: 0

Req: Record request: %Inh value, item `O=C(O)C(F)(F)F.O=c1[nH]ccc2nc(N[C@@H]3CCNC3)nc(Nc3cc(Cl)cc(Cl)c3)c12`
Resp: 99.1
